biological target: human CXCL13 (Homo sapiens, UniProt O43927); assay: SPR
Sequence (O43927 23-109): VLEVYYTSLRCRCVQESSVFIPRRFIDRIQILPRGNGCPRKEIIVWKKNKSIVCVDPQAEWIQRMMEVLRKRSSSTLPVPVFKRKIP
endpoint-label: kon

// worked examples, kon included
{"columns": ["binder", "measured"],
 "data": [
  ["anti-CXCL13 E10 scFv-Fc fusion protein (Fc fusion, human) VH: QVQLVQSGAEVKKPGSSVKVSCKASGGTFSSYAISWVRQAPGQGLEWMGGIIPIFGTANYAQKFQGRVTITADESTSTAYMELSSLRSEDTAVYYCAREPDYYDSSGYYPIDAFDIWGQGTTVTVSS VL: QSALTQPASVSASPGQSITISCTGTSSDVGAYDWVSWYQQHPGKAPKLLIFDVNNRPSGVSHRFSGSKSGNTASLTISGLQAEDEADYYCASATLLDTYVFGTGTKVTVL", "9.81e+06 M⁻¹ s⁻¹"],
  ["anti-CXCL13 3B4 scFv-Fc fusion protein (Fc fusion, human) VH: QVQLVQSGAEVKKPGSSVKVSCKASGGTFSSYAISWVRQAPGQGLEWMGGIIPIFGTANYAQKFQGRVTITADESTSTAYMELSSLRSEDTAVYYCAREPDYYDSSGYYPIDAFDIWGQGTTVTVSS VL: QSALTQPASVSASPGQSITISCTGTSSDVGAYDWVSWYQQHPGKAPKLLIFDVNNRPSGVSHRFSGSKSGNTASLTISGLQAEDEADYYCSSYTRRDTYVFGTGTKVTVL", "3.24e+07 M⁻¹ s⁻¹"],
  ["anti-CXCL13 H06 scFv-Fc fusion protein (Fc fusion, human) VH: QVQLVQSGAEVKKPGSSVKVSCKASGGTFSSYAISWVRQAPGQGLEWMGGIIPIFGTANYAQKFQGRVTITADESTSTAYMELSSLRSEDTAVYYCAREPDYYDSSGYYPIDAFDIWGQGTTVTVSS VL: QSALTQPASVSASPGQSITISCTGTSSDVGAYDWVSWYQQHPGKAPKLLIFDVNNRPSGVSHRFSGSKSGNTASLTISGLQAEDEADYYCASVVVTDTYVFGTGTKVTVL", "7.54e+06 M⁻¹ s⁻¹"]
]}

// next item, kon requested
input: # lookup: kon of anti-CXCL13 H08 scFv-Fc fusion protein (Fc fusion, human) VH: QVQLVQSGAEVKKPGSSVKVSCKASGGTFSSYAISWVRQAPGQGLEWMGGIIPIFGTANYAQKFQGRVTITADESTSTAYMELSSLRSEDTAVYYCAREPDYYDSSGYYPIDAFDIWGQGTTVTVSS VL: QSALTQPASVSASPGQSITISCTGTSSDVGAYDWVSWYQQHPGKAPKLLIFDVNNRPSGVSHRFSGSKSGNTASLTISGLQAEDEADYYCTSVTVEDTYVFGTGTKVTVL
output: 8.53e+06 M⁻¹ s⁻¹
